Origin of measurements: ChEMBL document CHEMBL1157011

# test_target: 5-hydroxytryptamine receptor 6 (Homo sapiens, UniProt P50406)
# Sequence (P50406 whole entry): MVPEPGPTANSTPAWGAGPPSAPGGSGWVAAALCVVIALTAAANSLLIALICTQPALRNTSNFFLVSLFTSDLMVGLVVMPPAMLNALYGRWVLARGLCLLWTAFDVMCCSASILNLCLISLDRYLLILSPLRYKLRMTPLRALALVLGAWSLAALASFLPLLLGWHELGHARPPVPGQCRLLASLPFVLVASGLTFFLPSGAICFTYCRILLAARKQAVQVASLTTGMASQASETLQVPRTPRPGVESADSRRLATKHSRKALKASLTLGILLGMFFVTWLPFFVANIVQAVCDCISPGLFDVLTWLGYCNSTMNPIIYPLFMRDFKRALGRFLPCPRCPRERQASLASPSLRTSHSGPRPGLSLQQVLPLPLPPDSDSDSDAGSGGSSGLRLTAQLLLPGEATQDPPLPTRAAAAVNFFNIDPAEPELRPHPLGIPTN
# assay_overview: Binding affinity to human recombinant 5HT6 receptor by radioligand displacement assay
assay_readout: Ki (nM)

1: CN1CCc2[nH]c3ccc(S(=O)(=O)Nc4cccc(F)c4)cc3c2C1
2: CN1CCc2c(c3cc(S(=O)(=O)c4ccccc4)ccc3n2C)C1
3: Cc1ccc2c(c1)c1c(n2CCc2ccc(C)nc2)CCN(C)C1 [LATREPIRDINE]
Q) Output the listed items in decreasing order of Ki. // format: requested-order list of labels
A) 3, 2, 1
(3: 34 nM, 2: 5.7 nM, 1: 2.1 nM)

---

# test_target: UniProtKB P28335
# Sequence (P28335 whole entry): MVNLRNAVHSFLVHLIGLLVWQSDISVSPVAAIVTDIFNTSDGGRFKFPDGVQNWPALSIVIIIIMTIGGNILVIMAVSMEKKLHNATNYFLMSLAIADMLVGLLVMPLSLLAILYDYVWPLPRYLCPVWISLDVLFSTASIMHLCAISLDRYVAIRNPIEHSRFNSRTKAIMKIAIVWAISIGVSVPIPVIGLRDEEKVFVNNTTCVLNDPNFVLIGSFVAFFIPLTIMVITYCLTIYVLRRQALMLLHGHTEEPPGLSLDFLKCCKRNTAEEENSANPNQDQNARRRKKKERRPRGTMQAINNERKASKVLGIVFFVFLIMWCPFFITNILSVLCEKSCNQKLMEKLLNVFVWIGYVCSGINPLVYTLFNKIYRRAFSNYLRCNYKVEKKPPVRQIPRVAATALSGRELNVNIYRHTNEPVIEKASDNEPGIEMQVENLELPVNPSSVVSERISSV
# assay_overview: Binding affinity to 5HT2C receptor by radioligand displacement assay
assay_readout: pKi
Keep in mind that pKi stands for -log10 of concentration in molar terms.

Lookup result for Cc1ccc2c(c1)c1c(n2CCc2ccc(C)nc2)CCN(C)C1 [LATREPIRDINE] ; measured pKi: 7.12

---

# test_target: UniProt P31388
# Sequence (P31388 whole entry): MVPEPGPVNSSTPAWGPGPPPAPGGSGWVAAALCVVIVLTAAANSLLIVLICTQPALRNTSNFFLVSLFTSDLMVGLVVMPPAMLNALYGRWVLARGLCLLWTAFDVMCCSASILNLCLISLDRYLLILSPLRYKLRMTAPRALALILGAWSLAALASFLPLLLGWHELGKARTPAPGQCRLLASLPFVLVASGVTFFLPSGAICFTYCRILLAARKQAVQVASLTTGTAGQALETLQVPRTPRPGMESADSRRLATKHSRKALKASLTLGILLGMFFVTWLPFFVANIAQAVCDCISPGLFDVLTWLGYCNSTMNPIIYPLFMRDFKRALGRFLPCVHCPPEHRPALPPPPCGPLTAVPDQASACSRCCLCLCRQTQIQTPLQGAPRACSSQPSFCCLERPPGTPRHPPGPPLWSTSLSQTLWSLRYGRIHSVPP
# assay_overview: Binding affinity to rat recombinant 5HT6 receptor
assay_readout: Ki (nM)
Report only the number, with the unit nM understood.

Lookup result for Cc1ccc2c(c1)c1c(n2CCc2ccc(C)nc2)CCN(C)C1 [LATREPIRDINE] ; measured Ki: 119

---

# test_target: 5-hydroxytryptamine receptor 6 (Homo sapiens, UniProt P50406)
# assay_overview: Antagonist activity at human recombinant 5HT6 receptor expressed in HEK293 cells assessed as inhibition of serotonin-induced cAMP production by LANCE assay
# Type: functional, cell-based
# experimental_parameters: read-out: IC50
assay_readout: IC50 (µM)

Consider the reported IC50 for these compounds:
CN1CCc2[nH]c3ccc(S(=O)(=O)N(C)C)cc3c2C1 : 26
O=S(=O)(Nc1cccc(F)c1)c1ccc2[nH]c3c(c2c1)CN(Cc1ccccc1)CC3 : 3.9

a: CN1CCc2[nH]c3ccc(S(=O)(=O)c4cccnc4)cc3c2C1
b: Cc1ccc(S(=O)(=O)n2c3c(c4cc(S(=O)(=O)c5ccccc5)ccc42)CN(C)CC3)cc1
Q) Please tell me which of the two, a or b , has the higher reported IC50 value. Refer to your chosen entry by its label in the reply.
A) b
(b: 28 µM, a: 3.4 µM)

---

Target protein (sequence): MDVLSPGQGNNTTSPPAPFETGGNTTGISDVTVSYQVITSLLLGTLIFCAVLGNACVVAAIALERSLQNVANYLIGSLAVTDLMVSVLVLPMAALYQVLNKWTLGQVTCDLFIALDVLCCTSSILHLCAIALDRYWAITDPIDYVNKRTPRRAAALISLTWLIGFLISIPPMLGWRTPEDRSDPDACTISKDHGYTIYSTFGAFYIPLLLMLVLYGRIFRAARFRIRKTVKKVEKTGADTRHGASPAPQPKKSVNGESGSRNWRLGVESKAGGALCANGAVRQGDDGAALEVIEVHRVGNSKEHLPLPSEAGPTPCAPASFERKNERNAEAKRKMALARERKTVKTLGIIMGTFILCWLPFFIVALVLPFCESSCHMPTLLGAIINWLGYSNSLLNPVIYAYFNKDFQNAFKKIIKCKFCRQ
assay_readout: Ki

Lookup result for Cc1ccc2c(c1)c1c(n2CCc2ccc(C)nc2)CCN(C)C1 [LATREPIRDINE] ; measured Ki: > 100 nM

---

# test_target: 5-hydroxytryptamine receptor 7 (Homo sapiens)
# Sequence (P34969 whole entry): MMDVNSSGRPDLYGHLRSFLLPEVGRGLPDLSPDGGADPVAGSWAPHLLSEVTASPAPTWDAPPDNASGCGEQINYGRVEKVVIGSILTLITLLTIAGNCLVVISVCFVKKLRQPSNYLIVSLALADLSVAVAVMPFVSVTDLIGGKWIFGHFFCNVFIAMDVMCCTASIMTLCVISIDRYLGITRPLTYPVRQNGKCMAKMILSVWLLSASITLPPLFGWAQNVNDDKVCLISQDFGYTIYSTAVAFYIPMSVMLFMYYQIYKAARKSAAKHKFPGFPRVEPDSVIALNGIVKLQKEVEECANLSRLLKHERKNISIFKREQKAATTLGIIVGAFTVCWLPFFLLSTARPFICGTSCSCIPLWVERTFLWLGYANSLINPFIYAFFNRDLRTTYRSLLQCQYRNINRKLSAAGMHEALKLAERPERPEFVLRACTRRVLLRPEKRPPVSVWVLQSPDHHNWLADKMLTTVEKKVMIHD
assay_readout: pKi
Keep in mind that pKi stands for -log10 of concentration in molar terms.

Form: item Cc1ccc2c(c1)c1c(n2CCc2ccc(C)nc2)CCN(C)C1 [LATREPIRDINE] ; test system 5-hydroxytryptamine receptor 7 (Homo sapiens); pKi: 8.10
